In this section, each of the compounds is paired with its reported pIC50.
# subject.of.test: Human Factor D (Homo sapiens (Human), UniProt P00746)
# Sequence (P00746 26-253): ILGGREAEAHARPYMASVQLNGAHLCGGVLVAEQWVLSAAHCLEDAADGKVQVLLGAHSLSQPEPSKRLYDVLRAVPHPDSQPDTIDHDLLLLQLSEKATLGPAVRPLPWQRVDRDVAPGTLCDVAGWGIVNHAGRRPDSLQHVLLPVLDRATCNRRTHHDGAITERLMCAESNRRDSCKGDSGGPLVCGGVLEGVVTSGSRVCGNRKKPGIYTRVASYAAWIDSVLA
# protocol.details: Human Factor D Assay
# Assay type: biochemical
# test.context: Factor D inhibition, assay of Example 10; read-out: IC5 (Stars)
# Experimental: The assay of Example 10 was used to determine the IC50's of the compounds. Other standard factor D inhibition assays are also available. Human Factor D (purified from human serum, Complement Technology, Inc.) at 80 nM final concentration is incubated with test compound at various concentrations for 5 min at room temperature in 50 mM Tris, 1M NaCl, pH 7.5. […] Absorbance at 405 nm (A405) is recorded at 30 second intervals for 30 min using a microplate spectrophotometer. […]
pIC50: −log10 of the molar value.

Consider the following illustrative entries.
[[record]]
compound = "Cc1ncc(-c2cc3c(C(C)O)nn(CC(=O)N4[C@H](C(=O)Nc5nc(Br)ccc5C)C[C@@]5(C)C[C@@H]45)c3cn2)cn1 (stereo partly drawn)"
outcome_measure = "pIC50"
reported_measurement = "5.00 to 6.00"

[[record]]
compound = "CC(=O)c1nn(CC(=O)N2[C@H](C(=O)Nc3nc(Br)ccc3CCCN3CCOCC3)C[C@@]3(C)C[C@@H]23)c2cnc(-c3cnc(C)nc3)cc12"
outcome_measure = "pIC50"
reported_measurement = "> 6.00"

[[record]]
compound = "CC(=O)c1nn(CC(=O)N2[C@H](C(=O)N[C@@H](CC(C)C)C(=O)O)C[C@@]3(C)C[C@@H]23)c2c(C)cc(-c3cnc(C)nc3)cc12"
outcome_measure = "pIC50"
reported_measurement = "> 6.00"

[[record]]
compound = "CC(=O)c1nn(CC(=O)N2[C@H](C(=O)N[C@@H](C)c3ccccc3)C[C@@]3(C)C[C@@H]23)c2ccc(-c3cnc(C)nc3)cc12"
outcome_measure = "pIC50"
reported_measurement = "> 6.00"


Give the measured pIC50 of `CC(=O)c1nn(CC(=O)N2[C@H](C(=O)Nc3nc(Br)ccc3C)C[C@@]3(C)C[C@@H]23)c2c(CO)cc(-c3cnc(C)nc3)cc12` . > 6.00

Please do the same for `CC(=O)c1nn(CC(=O)N2[C@@H](C(=O)Nc3nc(Br)ccc3C)C[C@]3(CC#N)C[C@H]23)c2cnc(-c3cnc(C)nc3)cc12` as well. 5.00 to 6.00
